Hello, the source for this data is patent US5753617A, in case you need it.

Target Or Test System: P-selectin (Homo sapiens, UniProt P16109)
Construct: P-selectin is isolated from human platelet lysates
Sequence (P16109 42-830): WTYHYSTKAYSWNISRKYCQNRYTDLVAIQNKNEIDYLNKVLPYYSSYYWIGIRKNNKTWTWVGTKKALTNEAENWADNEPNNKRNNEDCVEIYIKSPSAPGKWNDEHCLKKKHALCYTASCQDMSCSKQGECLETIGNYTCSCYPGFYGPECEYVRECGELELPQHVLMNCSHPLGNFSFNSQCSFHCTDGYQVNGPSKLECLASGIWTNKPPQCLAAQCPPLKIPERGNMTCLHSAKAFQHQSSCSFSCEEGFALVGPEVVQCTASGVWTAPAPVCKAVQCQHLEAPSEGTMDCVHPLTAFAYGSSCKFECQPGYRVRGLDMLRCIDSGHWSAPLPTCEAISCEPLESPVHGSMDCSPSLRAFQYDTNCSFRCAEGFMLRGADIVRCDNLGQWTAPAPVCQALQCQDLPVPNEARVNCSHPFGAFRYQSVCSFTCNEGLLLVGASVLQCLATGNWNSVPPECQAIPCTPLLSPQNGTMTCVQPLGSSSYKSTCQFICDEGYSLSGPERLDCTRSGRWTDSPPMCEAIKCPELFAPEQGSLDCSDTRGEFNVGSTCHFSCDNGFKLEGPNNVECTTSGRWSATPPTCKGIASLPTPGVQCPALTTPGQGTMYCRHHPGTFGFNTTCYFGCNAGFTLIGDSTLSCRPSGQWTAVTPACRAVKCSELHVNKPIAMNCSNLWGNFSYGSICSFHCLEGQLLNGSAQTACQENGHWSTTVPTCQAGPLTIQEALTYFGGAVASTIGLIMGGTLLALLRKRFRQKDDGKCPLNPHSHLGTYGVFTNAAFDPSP
Measurement Notes: Inhibition of human neutrophil adhesion to purified P-selectin immobilized on plastic wells
Assay Setup: inhibiting the binding of human neutrophils to P-selectin
Description: Peptides can be screened for their ability to inhibit adhesion to cells, for example, neutrophil adhesion to purified P-selectin immobilized on plastic wells, using the assay described by Geng, et al., Nature 343, 757-760 (1990). Human neutrophils are isolated from heparinized whole blood by density gradient centrifugation on Mono-Poly resolving media, Flow Laboratories. […] Peak fractions with absorbance at 280 nm are pooled. […]
Where a SMILES comes first, the peptide text is derived from it. Bridges are numbered along the chain shown (N, C = ends). [ ]: non-standard residue; d: D form.
Reported Property: pIC50
When answering, recall that pIC50 equals minus log10 of the concentration in mol/L, and write that number alone.

Check out these entries, answers already filled in.
{"columns": ["Compound", "pIC50"],
 "data": [
  ["CC(C)[C@@H](NC(=O)[C@@H](Cc1c[nH]c2ccccc12)NC(=O)[C@H](NC(=O)[C@@H](Cc1c[nH]c2ccccc12)NC(=O)[C@H]1CSSC[C@@H](NC(=O)[C@@H](CCCCN)NC(=O)[C@H](N)CCCNC(=N)N)C(=O)NCC(=O)N[C@H](C(C)C)C(=O)N1)[C@H](C)O)C(N)=O [(116)] (H-[dR][dK][dC]G[dV][dC][dW][dT][dW][dV]-NH2; disulfide 3-6)", 5.34],
  ["CC(C)[C@@H](NC(=O)[C@@H](Cc1c[nH]c2ccccc12)NC(=O)[C@H](NC(=O)[C@@H](Cc1c[nH]c2ccccc12)NC(=O)[C@H]1CSSC[C@H](NC(=O)[C@@H](CCCCN)NC(=O)[C@H](N)CCCNC(=N)N)C(=O)NCC(=O)N[C@@H](Cc2ccccc2)C(=O)N1)[C@H](C)O)C(N)=O [(35)] (H-[dR][dK]CGF[dC][dW][dT][dW][dV]-NH2; disulfide 3-6)", 4.94]
]}

Give pIC50 only, for CC(C)[C@@H](NC(=O)[C@@H](Cc1c[nH]c2ccccc12)NC(=O)[C@H](NC(=O)[C@@H](Cc1c[nH]c2ccccc12)NC(=O)[C@H]1CSSC[C@@H](NC(=O)[C@@H](CCCCN)NC(=O)[C@H](N)CCCNC(=N)N)C(=O)NCC(=O)N[C@@H](Cc2c[nH]c3ccccc23)C(=O)N1)[C@H](C)O)C(N)=O [(60)] (H-[dR][dK][dC]GW[dC][dW][dT][dW][dV]-NH2; disulfide 3-6) , using P-selectin (Homo sapiens, UniProt P16109) data.
5.85

Give pIC50 only, for CC[C@@H](C)[C@@H](NC(=O)CNC(=O)[C@H]1CSSC[C@@H](N)C(=O)N[C@H](CCCCN)C(=O)N[C@H]([C@H](C)CC)C(=O)N1)C(=O)N[C@H](Cc1c[nH]c2ccccc12)C(=O)N[C@@H](C(=O)N[C@H](Cc1c[nH]c2ccccc12)C(=O)N[C@@H](C(N)=O)C(C)C)[C@H](C)O [(109)] (H-[dC][dK][dI][dC]G[dI][dW][dT][dW][dV]-NH2; disulfide 1-4) , using P-selectin (Homo sapiens, UniProt P16109) data.
4.47

Give pIC50 only, for CC[C@H](C)[C@@H]1NC(=O)CNC(=O)[C@@H](NC(=O)[C@@H](NC(=O)[C@H](CCCCN)NC(=O)[C@@H](N)CCCNC(=N)N)[C@@H](C)CC)CCC(=O)NCCCC[C@@H](C(=O)N[C@@H](Cc2c[nH]c3ccccc23)C(=O)N[C@H](C(N)=O)C(C)C)NC(=O)[C@H](Cc2c[nH]c3ccccc23)NC1=O [(30)] (H-RKIEGIWKWV-NH2; lactam 4-8) , using P-selectin (Homo sapiens, UniProt P16109) data.
4.03

Give pIC50 only, for CC(C)[C@H](NC(=O)[C@H](Cc1c[nH]c2ccccc12)NC(=O)[C@@H](NC(=O)[C@H](Cc1c[nH]c2ccccc12)NC(=O)[C@@H]1CSSC[C@H](NC(=O)[C@@H](N)CCCCN)C(=O)NCC(=O)NCC(=O)N1)[C@@H](C)O)C(N)=O [(27)] (H-KCGGCWTWV-NH2; disulfide 2-5) , using P-selectin (Homo sapiens, UniProt P16109) data.
4.66
